Catalogue of pIC50 values
- TEST_SYSTEM: AAP receptors in CHO cells
- EXPERIMENT_DESCRIPTION: in situ displacement of [125I]AAP10 on intact CHO cells
pIC50: −log10 of the molar value. [ ]: non-standard residue; d: D form. Hyp = O=C(O)[C@@H]1C[C@@H](O)CN1
MEASUREMENT_KIND: pIC50

BINDER: H-GP[Hyp]GAG-OH (SMILES C[C@H](NC(=O)CNC(=O)[C@@H]1C[C@@H](O)CN1C(=O)[C@@H]1CCCN1C(=O)CN)C(=O)NCC(=O)O) [H-Gly-Pro-Hyp-Gly-Ala-Gly-OH (AAP, antiarrhythmic peptide)]
RECORDED_RESULT: 9.10
//
BINDER: H-GAG[Hyp]PY-NH2 [H-Gly-Ala-Gly-Hyp-Pro-Tyr-NH2 (AAP10)]
RECORDED_RESULT: 6.89
//
BINDER: {ASAL(3-I)}-P[Hyp]GAG-NH2 [ASAL(mono-iodo)-Pro-Hyp-Gly-Ala-Gly-NH2 (Compound 32)]
RECORDED_RESULT: 9.30
